# TESTED_TARGET: Cannabinoid receptor 1 (Homo sapiens)
# Sequence (P21554 whole entry): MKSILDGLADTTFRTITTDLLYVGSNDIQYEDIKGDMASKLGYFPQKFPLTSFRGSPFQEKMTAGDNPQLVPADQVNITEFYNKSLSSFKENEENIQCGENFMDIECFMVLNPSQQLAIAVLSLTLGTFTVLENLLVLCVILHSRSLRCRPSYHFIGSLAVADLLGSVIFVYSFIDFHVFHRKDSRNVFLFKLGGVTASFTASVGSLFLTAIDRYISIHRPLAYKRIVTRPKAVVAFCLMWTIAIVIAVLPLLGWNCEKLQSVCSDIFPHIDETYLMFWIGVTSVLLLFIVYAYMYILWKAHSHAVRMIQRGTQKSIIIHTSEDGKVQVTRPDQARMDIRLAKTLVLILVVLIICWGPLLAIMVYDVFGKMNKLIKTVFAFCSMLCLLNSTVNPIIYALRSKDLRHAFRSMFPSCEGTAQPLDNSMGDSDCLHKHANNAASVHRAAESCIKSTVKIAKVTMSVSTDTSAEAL
# EXPERIMENT_DESCRIPTION: Displacement of [3H]-CP55940 from human CB1 receptor expressed in HEK293 cell membrane at 1 uM incubated for 60 mins by radioligand competition binding assay relative to control
# Type: cell membranes
MEASURED_PROPERTY: Activity (%)
Supply the numeric figure in %, leaving out any unit text.

SMILES_DATA: CCCCCNc1ccc(-c2ccc(C)cc2)cc1C(=O)NC12CC3CC(CC(C3)C1)C2
MEASURED_PROPERTY: Activity
RECORDED_RESULT: 16

Now look at this one.
Prompt: // Activity lookup, key: CCCCCNc1ccc(-c2ccc(C(=O)OC)cc2)cc1C(=O)NC12CC3CC(CC(C3)C1)C2
Response: 6

====

# TESTED_TARGET: Cannabinoid receptor 1 (Homo sapiens)
# EXPERIMENT_DESCRIPTION: Displacement of [3H]-CP55940 from human CB1 receptor expressed in HEK293 cell membrane at 1 uM incubated for 60 mins by radioligand competition binding assay relative to control
# Format: cell membranes
MEASURED_PROPERTY: Activity (%)
Supply the numeric figure in %, leaving out any unit text.

Below, each entry is followed by its recorded Activity result.
SMILES_DATA: CCCCCNc1ccc(-c2cccc(C(N)=O)c2)cc1C(=O)NC12CC3CC(CC(C3)C1)C2
RECORDED_RESULT: 3
//
SMILES_DATA: CCCCCNc1ccc(-c2ccc(C(N)=O)cc2)cc1C(=O)NC12CC3CC(CC(C3)C1)C2
RECORDED_RESULT: 14
//
SMILES_DATA: CCCCCNc1ccc(-c2ccccc2)cc1C(=O)NC1CCCCC1
RECORDED_RESULT: 3

Prompt: // Activity lookup, key: CCCCCCNc1ccc(-c2cccs2)cc1C(=O)NC12CC3CC(CC(C3)C1)C2
Response: 32

Prompt: Check CCCCCNc1ccc(-c2cccc(C)c2)cc1C(=O)NC12CC3CC(CC(C3)C1)C2 too.
Response: 14

====

# TESTED_TARGET: Cannabinoid receptor 1 (Homo sapiens)
# EXPERIMENT_DESCRIPTION: Displacement of [3H]-CP55940 from human CB1 receptor expressed in HEK293 cell membrane at 1 uM incubated for 60 mins by radioligand competition binding assay relative to control
# Assay type: cell membranes
MEASURED_PROPERTY: Activity (%)
Supply the numeric figure in %, leaving out any unit text.

SMILES_DATA: CCCCCNc1ccc(-c2cccnc2)cc1C(=O)NC12CC3CC(CC(C3)C1)C2
UNIT_STRING: %
RECORDED_RESULT: 1

Prompt: Look up Activity with Cannabinoid receptor 1 (Homo sapiens) for this compound: CCCCCNc1ccc(Br)cc1C(=O)NC12CC3CC(CC(C3)C1)C2
Response: 5

Prompt: Check CCCCCCCNc1ccc(-c2ccccc2)cc1C(=O)NC12CC3CC(CC(C3)C1)C2 too.
Response: 22

Prompt: Check CCCCCCNc1ccccc1C(=O)NC12CC3CC(CC(C3)C1)C2 too.
Response: 6

Prompt: Check CCCCCNc1ccc(-c2ccccc2)cc1C(=O)NC12CC3CC(CC(C3)C1)C2 too.
Response: 5

Prompt: Check CCCCCNc1ccc(-c2cccc(OC)c2)cc1C(=O)NC12CC3CC(CC(C3)C1)C2 too.
Response: 28

Prompt: Check CCCCCCNc1ccc(-c2cccnc2)cc1C(=O)NC12CC3CC(CC(C3)C1)C2 too.
Response: 9

Prompt: Check CCCCCNc1ccc(-c2ccc(OC)cc2)cc1C(=O)NC12CC3CC(CC(C3)C1)C2 too.
Response: 23

Prompt: Check CCCCCCCNc1ccccc1C(=O)NC12CC3CC(CC(C3)C1)C2 too.
Response: 4

Prompt: Check CCCCCCCNc1ccc(-c2cccs2)cc1C(=O)NC12CC3CC(CC(C3)C1)C2 too.
Response: 7

Prompt: Check CCCCCCNc1ccc(Br)cc1C(=O)NC12CC3CC(CC(C3)C1)C2 too.
Response: 17

Prompt: Check CCCCCNc1ccc(-c2cccs2)cc1C(=O)NC12CC3CC(CC(C3)C1)C2 too.
Response: 15

Prompt: Check CCCCCCNc1ccc(-c2ccccc2)cc1C(=O)NC12CC3CC(CC(C3)C1)C2 too.
Response: 35

Prompt: Check CCCCCCCNc1ccc(-c2cccnc2)cc1C(=O)NC12CC3CC(CC(C3)C1)C2 too.
Response: 16

Prompt: Check CCCCCCCNc1ccc(Br)cc1C(=O)NC12CC3CC(CC(C3)C1)C2 too.
Response: 8
